Recorded values, source patent US20250388666A1.

Parameter pKd: see the listing below.
# ASSAYED SYSTEM: T1, CEACAM1-HIS (Sino Biologics Inc.) (Homo sapiens (Human), UniProt P13688 35-428)
# T1 construct: bought; not shown: His tag
# T1 sequence: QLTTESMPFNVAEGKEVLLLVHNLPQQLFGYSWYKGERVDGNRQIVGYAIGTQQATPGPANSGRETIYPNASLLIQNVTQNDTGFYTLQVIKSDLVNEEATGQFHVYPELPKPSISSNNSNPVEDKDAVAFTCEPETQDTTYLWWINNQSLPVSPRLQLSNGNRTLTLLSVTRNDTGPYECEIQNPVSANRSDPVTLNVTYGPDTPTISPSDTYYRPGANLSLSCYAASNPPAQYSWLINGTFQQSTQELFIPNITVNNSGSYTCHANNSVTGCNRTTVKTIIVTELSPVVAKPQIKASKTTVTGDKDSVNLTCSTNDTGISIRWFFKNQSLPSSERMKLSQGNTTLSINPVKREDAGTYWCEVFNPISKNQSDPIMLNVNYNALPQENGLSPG
# ASSAY NAME: SPR single-cycle, IgG on Protein A
By convention, pKd is the negative base-10 log of a molar concentration.

INSERT INTO results (binder, test_value) VALUES
  ('VH0/Vκ1 (antibody, V domains shown) VH: EVQLVESGGDLVKPGGSLKLACAASGFIFSSHGMSWVRQTPDKRLEWVATISSGGTYTYYPDSVKGRFTISRDNDKNTLYLQMNSLKSEDTAMYYCARHDFDYDAAWFAYWGQGTLVTVSS VL: QIVLTQSPALLSLSPGERATMSCSANSSVSYMYWYRQKPGQAPKPWIYLTSNLASGVPARFSGSGSGTDYTLTISSLEAEDFATYYCQQWSSNPPTFGQGTKLEIK', 7.25),
  ('VH4/Vκ2 (antibody, V domains shown) VH: EVQLLESGGGLVQPGGSLRLSCAASGFIFSSHGMSWVRQAPGKGLEWVSTISSGGTYTYYADSVKGRFTISRDNSKNTLYLQMNSLRAEDTAVYYCARHDFDYDAAWFAYWGQGTLVTVSS VL: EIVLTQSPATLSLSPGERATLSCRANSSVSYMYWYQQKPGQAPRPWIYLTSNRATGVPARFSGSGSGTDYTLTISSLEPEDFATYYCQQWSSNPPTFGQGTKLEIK', 5.40),
  ('VH3/Vκ2 (antibody, V domains shown) VH: EVQLLESGGGLVQPGGSLRLSCAASGFIFSSHGMSWVRQAPGKGLEWVATISSGGTYTYYADSVKGRFTISRDNSKNTLYLQMNSLRAEDTAMYYCARHDFDYDAAWFAYWGQGTLVTVSS VL: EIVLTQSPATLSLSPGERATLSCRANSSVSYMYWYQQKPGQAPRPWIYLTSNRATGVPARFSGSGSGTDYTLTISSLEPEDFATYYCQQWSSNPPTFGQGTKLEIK', 6.58);

Consider the binder VH4/Vκ1 (antibody, V domains shown) VH: EVQLLESGGGLVQPGGSLRLSCAASGFIFSSHGMSWVRQAPGKGLEWVSTISSGGTYTYYADSVKGRFTISRDNSKNTLYLQMNSLRAEDTAVYYCARHDFDYDAAWFAYWGQGTLVTVSS VL: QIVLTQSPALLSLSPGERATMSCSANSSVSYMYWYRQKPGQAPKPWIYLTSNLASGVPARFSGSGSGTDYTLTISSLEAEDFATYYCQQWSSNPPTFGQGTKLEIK and give its measured pKd.
6.61
